target: IKZF1 (Homo sapiens, UniProt Q13422+Q96SW2); construct: expressed in transfected cells; assay: HEK293 HiBiT in vitro degradation of IKZF1; assay type: cell-based; conditions: HEK293 HiBiT, 18-24 hr incubation, normalized to DMSO control; read-out: IKZF1 EC50
Sequence (Q13422 whole entry): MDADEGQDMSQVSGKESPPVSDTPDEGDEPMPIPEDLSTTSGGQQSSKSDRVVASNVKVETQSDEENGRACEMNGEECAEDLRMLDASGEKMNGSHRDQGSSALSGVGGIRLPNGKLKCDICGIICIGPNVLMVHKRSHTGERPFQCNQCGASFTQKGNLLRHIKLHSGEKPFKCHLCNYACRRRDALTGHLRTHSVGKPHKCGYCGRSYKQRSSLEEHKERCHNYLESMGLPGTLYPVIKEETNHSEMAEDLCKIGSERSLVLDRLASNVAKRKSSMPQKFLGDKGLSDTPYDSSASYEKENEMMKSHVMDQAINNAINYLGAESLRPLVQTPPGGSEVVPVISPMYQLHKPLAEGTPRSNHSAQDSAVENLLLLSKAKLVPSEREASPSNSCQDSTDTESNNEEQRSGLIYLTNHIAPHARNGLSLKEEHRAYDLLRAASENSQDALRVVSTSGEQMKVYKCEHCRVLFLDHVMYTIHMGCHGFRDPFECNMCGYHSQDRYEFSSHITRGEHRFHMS
Sequence (Q96SW2 whole entry): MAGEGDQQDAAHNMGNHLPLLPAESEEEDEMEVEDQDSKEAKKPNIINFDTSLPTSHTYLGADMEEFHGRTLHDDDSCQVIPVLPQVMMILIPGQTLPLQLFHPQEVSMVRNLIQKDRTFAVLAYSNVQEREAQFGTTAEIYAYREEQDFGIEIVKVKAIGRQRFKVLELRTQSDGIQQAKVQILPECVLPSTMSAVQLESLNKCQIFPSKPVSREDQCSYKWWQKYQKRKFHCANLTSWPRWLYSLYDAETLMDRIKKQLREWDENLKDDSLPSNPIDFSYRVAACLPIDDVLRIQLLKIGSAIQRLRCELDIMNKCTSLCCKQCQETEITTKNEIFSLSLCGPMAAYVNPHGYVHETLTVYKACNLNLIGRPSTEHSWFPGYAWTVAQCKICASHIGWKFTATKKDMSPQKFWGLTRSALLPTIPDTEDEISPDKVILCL
Sequence (Q16531 whole entry partner): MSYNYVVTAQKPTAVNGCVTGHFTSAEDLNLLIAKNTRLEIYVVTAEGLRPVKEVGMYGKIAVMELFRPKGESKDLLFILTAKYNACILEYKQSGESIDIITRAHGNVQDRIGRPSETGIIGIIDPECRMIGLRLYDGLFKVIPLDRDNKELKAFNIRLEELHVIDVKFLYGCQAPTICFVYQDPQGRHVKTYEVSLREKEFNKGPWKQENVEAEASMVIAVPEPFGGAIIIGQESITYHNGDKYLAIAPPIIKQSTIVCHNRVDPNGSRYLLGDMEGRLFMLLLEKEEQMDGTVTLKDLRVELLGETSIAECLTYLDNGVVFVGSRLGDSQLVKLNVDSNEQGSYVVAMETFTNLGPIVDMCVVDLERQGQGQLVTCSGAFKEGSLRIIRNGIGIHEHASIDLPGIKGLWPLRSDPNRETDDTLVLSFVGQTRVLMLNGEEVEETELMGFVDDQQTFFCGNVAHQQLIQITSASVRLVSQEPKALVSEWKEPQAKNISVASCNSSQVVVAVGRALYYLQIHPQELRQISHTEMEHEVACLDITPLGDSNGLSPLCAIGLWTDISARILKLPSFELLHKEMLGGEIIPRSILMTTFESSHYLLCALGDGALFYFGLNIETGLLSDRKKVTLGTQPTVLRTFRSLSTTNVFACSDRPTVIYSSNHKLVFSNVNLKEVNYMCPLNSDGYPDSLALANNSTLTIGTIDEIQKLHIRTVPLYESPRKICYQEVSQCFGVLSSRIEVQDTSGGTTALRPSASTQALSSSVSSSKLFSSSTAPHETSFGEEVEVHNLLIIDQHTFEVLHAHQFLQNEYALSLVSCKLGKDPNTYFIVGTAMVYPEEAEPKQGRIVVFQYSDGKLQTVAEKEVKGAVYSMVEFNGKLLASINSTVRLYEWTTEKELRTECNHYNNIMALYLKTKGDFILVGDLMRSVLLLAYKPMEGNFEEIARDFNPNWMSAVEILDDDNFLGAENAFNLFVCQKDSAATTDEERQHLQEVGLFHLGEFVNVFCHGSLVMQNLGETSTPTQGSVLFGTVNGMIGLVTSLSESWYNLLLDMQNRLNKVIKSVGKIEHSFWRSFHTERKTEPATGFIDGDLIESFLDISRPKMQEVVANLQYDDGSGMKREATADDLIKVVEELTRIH
endpoint: DC50

Examples with their reported DC50 follow.
Entry O=C1CCC(N2Cc3cc(C[C@H]4CCCC[C@@H]4NCC45CCC(CC4)CC5)ccc3C2=O)C(=O)N1 (stereo partly drawn) : reported DC50 = ?
> 1000 nM

So what does the record say about DC50 for COC1(C)CCC(N[C@H]2CCCO[C@@H]2Cc2ccc3c(c2F)CN(C2CCC(=O)NC2=O)C3=O)CC1 (single isomer, unassigned) [Example 317] ?
243 nM

# query: DC50 of entry O=C1CCC(N2Cc3cc(C[C@H]4CCCC[C@@H]4N4CC(OCC5CC5)C4)ccc3C2=O)C(=O)N1 (stereo partly drawn)
> 1000 nM

Requested field: DC50. Item: CN(Cc1ccccc1)[C@H]1CCCC[C@@H]1Cc1ccc2c(c1)CN(C1CCC(=O)NC1=O)C2=O (stereo partly drawn)
> 1000 nM

Request the reported DC50 associated with CC(N[C@H]1CCCC[C@@H]1Cc1ccc2c(c1F)CN(C1CCC(=O)NC1=O)C2=O)C1CCOCC1 (single isomer, unassigned) [Example 288]
399 nM

I'd like to know its DC50. The molecule in question is O=C1CCC(N2Cc3c(ccc(C[C@H]4OCCC[C@@H]4NC4CCC(C(F)F)CC4)c3F)C2=O)C(=O)N1 (single isomer, unassigned) [Example 283]
92 nM

May I ask what DC50 has been recorded for CCOC1CN([C@H]2CCCC[C@@H]2Cc2ccc3c(c2)CN(C2CCC(=O)NC2=O)C3=O)C1 (stereo partly drawn) ?
> 1000 nM

Reported DC50 for CC(c1ccc2c(c1)CN(C1CCC(=O)NC1=O)C2=O)[C@H]1CCCC[C@@H]1NC1CCC(F)(F)CC1 (stereo partly drawn) : what is it?
> 1000 nM

***
// query DC50 value for entry O=C1CCC(N2Cc3cc(C[C@H]4CCCC[C@@H]4NCc4ccccc4)ccc3C2=O)C(=O)N1 (stereo partly drawn) [Example 2]
> 10000 nM

Which DC50 value belongs to CC1CC[C@H](NC2CCC(F)(F)CC2)[C@@H](Cc2ccc3c(c2)CN(C2CCC(=O)NC2=O)C3=O)C1 (single isomer, unassigned) [Example 325] ?
> 1000 nM

Would you mind telling me what DC50 value was observed for O=C1CCC(N2Cc3cc(C[C@H]4CCCC[C@@H]4NC4CCCCC45CC5)ccc3C2=O)C(=O)N1 (stereo partly drawn) [Example 228] ?
> 1000 nM

Consider the molecule shown here: CC(=O)N1CCC(N[C@H]2CCCC[C@@H]2Cc2ccc3c(c2)CN(C2CCC(=O)NC2=O)C3=O)CC1 (stereo partly drawn) What is its recorded DC50?
> 1000 nM

###

target: IKZF1 (Homo sapiens, UniProt Q13422+Q96SW2); construct: expressed in transfected cells; test: HEK293 HiBiT in vitro degradation of IKZF1; type: cell-based; details: HEK293 HiBiT, 18-24 hr incubation, normalized to DMSO control; read-out: IKZF1 EC50
endpoint: DC50

Entry O=C1CCC(N2Cc3cc(C[C@H]4CCCC[C@@H]4NC4CCOC4)ccc3C2=O)C(=O)N1 (stereo partly drawn) [Example 73] has what DC50?
> 1000 nM

---
What value of DC50 has been reported for the following molecule? O=C1CCC(N2Cc3cc(C[C@H]4CCCC[C@@H]4NC4CCCCC4(F)F)ccc3C2=O)C(=O)N1 (stereo partly drawn) [Example 111]
> 1000 nM

Which DC50 value belongs to CC(N[C@H]1CCCC[C@@H]1Cc1ccc2c(c1)CN(C1CCC(=O)NC1=O)C2=O)C1CCCO1 (single isomer, unassigned) [Example 254] ?
> 1000 nM
